assay: in vivo; settings: nude, mouse, 773 ug
Outcome measure: AUC (ng·h/mL)

{"columns": ["Compound", "Endpoint unit", "Observed measurement"],
 "data": [
  ["CCc1c2c(nc3ccc(OC(=O)N4CCC(N5CCCCC5)CC4)cc13)-c1cc3c(c(=O)n1C2)COC(=O)[C@]3(O)CC [irinotecan, reference compound]", "ng·h/mL", 21000]
]}

---

Below, each of the compounds is paired with its reported IC50 value.
system: MDA-MB-231; assay: in vitro cytotoxicity, MTS (Table 14); assay type: cell-based, human; details: Homo sapiens, YHO-13351 2 μM where added
Outcome measure: IC50 (nM)

{"columns": ["Compound", "Endpoint unit", "Observed measurement"],
 "data": [
  ["COc1cccc2c1C(=O)c1c(O)c3c(c(O)c1C2=O)C[C@@](O)(C(=O)CO)C[C@@H]3O[C@H]1C[C@H](N)[C@H](O)[C@H](C)O1 [Doxorubicin]", "nM", 10.9],
  ["CC(=O)O[C@H]1C(=O)[C@@]2(C)[C@H]([C@H](OC(=O)c3ccccc3)[C@]3(O)C[C@H](OC(=O)[C@H](O)[C@@H](NC(=O)c4ccccc4)c4ccccc4)C(C)=C1C3(C)C)[C@]1(OC(C)=O)CO[C@@H]1C[C@@H]2O [Paclitaxel]", "nM", 2.5]
]}
